Experiment: Human single dose crossover drug interaction study, pharmacokinetics
Format: in vivo
Conditions: male, human, in vivo; single oral dose VPA-985 75-mg suspension alone; healthy men
reportedEndpoint: AUC (ng·h/mL)

[[record]]
chemsmiles = "Cc1ccc(F)cc1C(=O)Nc1ccc(C(=O)N2Cc3cccn3Cc3ccccc32)c(Cl)c1"
reportedendpoint = "AUC"
endpointvalue = 968


====

Assay: Human single dose crossover drug interaction study, pharmacokinetics
Type: in vivo
Details: male, human, in vivo; single oral dose VPA-985 75-mg suspension alone; healthy men; read-out: mean time of peak concentration (tmax) of VPA-985
reportedEndpoint: Tmax

[[record]]
chemsmiles = "Cc1ccc(F)cc1C(=O)Nc1ccc(C(=O)N2Cc3cccn3Cc3ccccc32)c(Cl)c1"
endpointvalue = "< 1 h"

